Cathepsin S (Homo sapiens) IC50, compiled from various sources.
experimental.readout: IC50 (nM)

Some molecules with recorded IC50:
Cn1cc(-c2ccc(S(=O)(=O)[C@@H]3C[C@@H](C(=O)NC4(C#N)CC4)N(C(=O)C4(c5ncc(Cl)cc5F)CC4)C3)c(Cl)c2)cn1
0.375
CC(C)C[C@H](NC(=O)[C@@H]1C[C@@H](S(=O)(=O)c2ccccc2Cl)CN1C(=O)C1(c2ncc(Cl)cc2F)CC1)C(=O)C(=O)NC1CC1
2.61
CC(=O)N1CCN(c2ccc(S(=O)(=O)[C@@H]3C[C@@H](C(=O)NC4(C#N)CC4)[C@H](C(=O)N4CC(F)(F)C4)C3)c(Cl)c2)CC1
0.6

P. CC[C@H](NC(=O)[C@@H]1C[C@@H](S(=O)(=O)c2ccccc2Cl)CN1C(=O)C1(c2ccc(Cl)cc2)CC1)C(=O)c1nc2ccccc2o1
Q. N#CC1(NC(=O)C2(NC(=O)c3cc4ccc(-c5ccc(C6CCS(=O)(=O)CC6)cc5)cc4o3)CCC(F)(F)CC2)CC1
Lowest IC50? choose P or Q Mark your selection by writing its label.
P
(P: 0.737 nM, Q: 4700 nM)

----------
Cathepsin S (Homo sapiens) IC50, compiled from various sources.
experimental.readout: IC50 (nM)

Some compounds with recorded IC50:
N#CC1(NC(=O)C2(NC(=O)c3cc4ccc(-c5ccc(C6(O)CCOCC6)cc5)cc4o3)CCCCC2)CC1
4100
CCC[C@H](NC(=O)[C@@H]1C[C@@H](S(=O)(=O)c2ccc(F)cc2Cl)CN1C(=O)C1(c2ccc(Cl)cc2)CC1)C(=O)C(=O)NC1CC1
0.527
N#CC1(NC(=O)[C@H]2CC[C@H](S(=O)(=O)c3ccc(N4CCC(F)(F)C4)cc3Cl)C2)CC1 (racemic)
213

a. N#CC1(NC(=O)[C@@H]2C[C@@H](S(=O)(=O)c3ccccn3)C[C@H]2C(=O)N2CCC(F)(F)C2)CC1
b. N#CC1(NC(=O)C2(NC(=O)c3cc4ccc(-c5ccc(C6(N)COC6)cc5)cc4o3)CCC(F)(F)CC2)CC1
c. N#CC1(NC(=O)[C@@H]2C[C@@H](S(=O)(=O)c3ccccc3Cl)C[C@H]2OCc2ccc(Cl)cc2F)CC1 (racemic)
d. N#CC1(NC(=O)[C@@H]2C[C@@H](S(=O)(=O)c3ccc(Br)cc3Cl)C[C@H]2C(=O)N2CCC(F)(F)C2)CC1
e. COc1ccc(-c2ccc(S(=O)(=O)[C@H]3C[C@@H](OC)[C@H](C(=O)NC4(C#N)CC4)C3)c(C(F)(F)F)c2)cn1 (racemic)
Your job: order these 5 records by IC50, ascending. When ranking, write the labels in the order the request describes.
e, a, d, c, b
(e: 0.3 nM, a: 0.555 nM, d: 1.07 nM, c: 4.99 nM, b: 260 nM)

A. N#CC1(NC(=O)[C@@H]2C[C@@H](S(=O)(=O)c3ccccc3Cl)CN2C(=O)C2(N3CCN(C=O)CC3)CC2)CC1
B. N#CC1(NC(=O)[C@@H]2C[C@@H](S(=O)(=O)c3ccccc3)C[C@H]2C(=O)O)CC1
C. Cc1cc(Cl)ccc1S(=O)(=O)[C@@H]1C[C@@H](C(=O)NCC#N)[C@H](C(=O)N2CCOCC2)C1
D. N#CC1(NC(=O)[C@@H]2C[C@@H](S(=O)(=O)c3ccc(OCC(F)(F)F)cc3Cl)C[C@H]2C(=O)N2CCC(F)(F)C2)CC1
Returns the items ordered by IC50, from maximum to minimum. When ranking, write the labels in the order the request describes.
B, A, D, C
